These entries and their values trace back to PubChem BioAssay (NCI).

test system: NCI-H522 lung; assay: NCI-60 one-dose screen, 48 h; details: 10 µM unless noted
The panel holds about 83,000 compounds, 20% with a hit somewhere; the sample as a whole holds those more often. The source made the active and inactive calls. How the source made its calls: active means growth percent below 10; inactive means the rest.
Form entry, call: pick from active, inactive

Example entries begin here.
CC(C)=CCC[C@](C)(O)[C@H]1CC[C@]2(C)[C@@H]1CC[C@@H]1[C@@]3(C)C/C(=C/c4ccccc4)C(=O)C(C)(C)[C@@H]3CC[C@]12C: inactive
COc1cc2c(c(OC)c1OC)CCC(c1cccc(NC(=O)c3cccc(Br)c3)c1)O2 (stereo not drawn): inactive
CCCCCN1C=C/C(=C\C(=O)N(C)c2ccc(OC(F)(F)F)cc2)c2ccccc21: inactive
COc1cc2oc(-c3cccc(C(=O)Nc4ccccc4)c3)cc(=O)c2c(O)c1OC: inactive
O=C(/C=C/c1ccc[nH]1)c1ccc(-n2ccc(C(F)(F)F)n2)c(F)c1: inactive
C=C(CBr)[C@@H]1CC[C@]2(COC(C)=O)CC[C@]3(C)[C@H](CC[C@@H]4[C@@]5(C)CCCNC(C)(C)[C@@H]5CC[C@]43C)[C@@H]12: inactive
COc1cc2c3c(c4c5ccccc5[nH]c4c2c(OC)c1OC)C(=O)N(CCN1CCOCC1)C3=O: inactive

Now look at this entry.
Identify the outcome logged in this assay for the molecule shown: C=C1C(=O)O[C@H]2[C@H]1CC/C(COC(=O)NCc1c[nH]c3ccc(Cl)cc13)=C\CC[C@@]1(C)O[C@@H]21
active

----------
test system: SN12C renal; assay: NCI-60 one-dose screen, 48 h; settings: 10 µM unless noted
The panel holds about 83,000 compounds, 20% with a hit somewhere; the sample as a whole holds those more often. The source made the active and inactive calls. Rule for the calls: active = growth percent below 10; inactive = the rest.
Form entry, call: pick from active, inactive

CCc1ccc(-c2cn3ccnc3c(-c3ccc4ncn(Cc5ccccc5)c4c3)n2)cc1: inactive

Identify the outcome logged in this assay for the molecule shown: O=c1c2c(c(=O)n1O)c1c3ccc[nH]c3nc1c1nc3[nH]cccc3c12
inactive

Now try COC(=O)C1=C(C(=O)ON)C2C=CC1(C(Cc1ccccc1)Nc1ccccc1)O2 (stereo not drawn) .
inactive

Now try COC(=O)CNC(=O)[C@]12CCC(C)(C)C[C@H]1C1=CC[C@@H]3[C@@]4(C)Cc5c([nH]c6ccccc56)C(C)(C)[C@@H]4CC[C@@]3(C)[C@]1(C)CC2 .
inactive

Now try COc1ccc(CNCCN2C(=O)c3ccc4c5c(ccc(c35)C2=O)C(=O)N(CCNCc2ccc(OC)c(OC)c2OC)C4=O)c(OC)c1OC .
active

----------
test system: MOLT-4 leukemia; assay: NCI-60 one-dose screen, 48 h (100 = growth as untreated, 0 = no growth, -100 = all killed); settings: 10 µM unless noted
The panel holds about 83,000 compounds, 20% with a hit somewhere; the sample as a whole holds those more often.
property-name: growth (%)
Expressed in %, but write only the number.

CC1=C(C(=O)/C=C/c2c[nH]c3ccccc23)C(c2ccccc2)NC(=S)N1 (stereo not drawn): 101
COc1ccc(-c2nc3sccn3c2/C=C/C(=O)c2ccc3c(c2)OCO3)cc1: 37.3
O=C(Cn1c[n+](CC(=O)c2ccc([N+](=O)[O-])cc2)c2ccccc21)Nc1cccc2cccnc12: 92.8
CC(=O)N1N=C(c2ccc(-n3ccc(C(F)(F)F)n3)c(F)c2)CC1c1ccc[nH]1 (stereo not drawn): 85.6

# value lookup — system MOLT-4 leukemia, readout growth, item COc1ccc(/C=C2\Oc3cc(OCCCCCN4CCCCC4)ccc3C2=O)cc1OC
70.2

Now try O=C1c2ccc3c4c(ccc(c24)C(=O)N1CCCNCc1ccccc1F)C(=O)N(CCCNCc1ccccc1F)C3=O .
-28.9

Now try CCOC(=O)c1cc(C(=O)c2ccc(Br)cc2)n2ccc(/C=C/c3cc[n+](CC(=O)c4ccc(OC)cc4)cc3)cc12 .
68.3

----------
system: NCI/ADR-RES ovarian; assay: NCI-60 one-dose screen, 48 h; conditions: 10 µM unless noted
Compounds without any hit were thinned out: in the full panel of roughly 83,000, 20% have a hit. Active and inactive are the calls of the source. Rule for the calls: active = growth percent below 10; inactive = the rest.
Form entry, call: pick from TRUE (active), FALSE (inactive)

Identify the outcome logged in this assay for the compound shown: O=S(=O)(NCCCNc1nccc(-c2c(-c3cccc(F)c3)nc3sccn23)n1)c1cccc(F)c1
FALSE

Now try COc1cc(C2C3=C(COC3=O)N(CCO)c3cc4c(cc32)CCC4)cc(OC)c1OC (stereo not given) .
TRUE

Now try CCOC(=O)c1cc(C(=O)c2ccc(Br)cc2)n2ccc(/C=C/c3cc[n+](CC(=O)c4ccc(OC)cc4)cc3)cc12 .
FALSE

Now try Oc1cccc(CCc2ccc(Oc3cc(CCc4cccc(O)c4)cc(O)c3O)cc2)c1 .
FALSE

Now try COc1ccc(/C=C/c2nc(Nc3cccc(NC(C)=O)c3)c3ccccc3n2)cc1 .
FALSE

----------
system: HOP-92 NSCLC; experiment: NCI-60 one-dose screen, 48 h (100 = growth as untreated, 0 = no growth, -100 = all killed); details: 10 µM unless noted
The panel holds about 83,000 compounds, 20% with a hit somewhere; the sample as a whole holds those more often.
property-name: growth (%)
Expressed in %, but write only the number.

Reference set, count: 5
COc1cc(/C=C\c2cc(OC)c(OC)c(OC)c2)cc(NC(=O)/C=C/c2cc(OC)c(OC)c(OC)c2)c1OC: 45
CN[C@@H](C)C(=O)N[C@H]1CCS[C@H]2CC(C)(C)[C@@H](C(=O)N[C@H]3c4ccccc4C[C@H]3OCC#CC#CCO[C@@H]3Cc4ccccc4[C@@H]3NC(=O)[C@H]3N4C(=O)[C@@H](NC(=O)[C@H](C)NC)CCS[C@H]4CC3(C)C)N2C1=O: 79.4
CN1CCN(C(=O)[C@]23CCC(C)(C)C[C@H]2C2=CC[C@@H]4[C@@]5(C)C/C(=C/c6ccncc6)C(=O)C(C)(C)[C@@H]5CC[C@@]4(C)[C@]2(C)CC3)CC1: 41
Cc1ccc(-n2c3c(c(-c4ccccc4)c2-c2ccccc2)C2=NCCN2C=N3)cc1: 87
CCNC(=O)Oc1ccc(/C(=C(\C)c2ccccc2)c2ccc(OCCN3CCCCC3)cc2)cc1: 73.4

Turning to the following compound.
Quick one: growth of CCC(CC)NCC(C)(C)O ?
105

----------
growth for assorted molecules
Tested on: SK-MEL-2 melanoma
Assay: NCI-60 one-dose screen, 48 h (100 = growth as untreated, 0 = no growth, -100 = all killed)
Conditions: 10 µM unless noted
Procedure: Growth inhibition of the SK-MEL-2 human tumor cell line is measured as a screen for anti-cancer activity. Cells are grown in 96 well plates and exposed to the test compound for 48 hours. Compounds are tested at a single concentration, which is 10^-5 M for most compounds. The reported endpoint is percent growth (GI% or GIPRCNT), where numbers from 0 - 100% represent growth inhibition, and numbers from -100% - 0 represent cell death. For example, a value of 40 represents 60% growth inhibition. […]
This is part of a sample that, as a whole, favours compounds with a hit. Of some 83,000 tested, about 20% had one in any assay.
Expressed in %, but write only the number.

Cc1ccc(NC(C(=O)c2ccccc2)c2ccccc2)cc1 (stereo not given): 36.1
C/C(=N\NC(=O)CSc1nc2ccccc2c(=O)n1CCc1ccc(S(N)(=O)=O)cc1)c1ccccn1: 47.2
Cc1ccc(/C=N/NC(=O)CSc2nc3ccccc3c(=O)n2Cc2ccc(S(N)(=O)=O)cc2)cc1: 94
COc1cc2nc(-c3ccc(Cl)cc3)cc(OCCCN3CCOCC3)c2cc1OC: 73.1

Turning to the following molecule.
Quick one: growth of NCCCCCCNc1cc(-c2cccc(OC(F)(F)F)c2)nc2ccc(N3CCCC3)cc12 ?
-63.6

----------
System: COLO 205 colon
Assay: NCI-60 one-dose screen, 48 h (100 = growth as untreated, 0 = no growth, -100 = all killed)
Conditions: 10 µM unless noted
Experimental: Cells are grown in 96 well plates and exposed to the test compound for 48 hours. Compounds are tested at a single concentration, which is 10^-5 M for most compounds. The reported endpoint is percent growth (GI% or GIPRCNT), where numbers from 0 - 100% represent growth inhibition, and numbers from -100% - 0 represent cell death. For example, a value of 40 represents 60% growth inhibition. A value of 0 means no net growth occurred over the course of the experiment. […]
About 83,000 compounds went through this panel and 20% of them were active in at least one assay; those are over-represented in the sample as a whole.
property-name: growth (%)
Expressed in %, but write only the number.

Reference set, count: 5
CCCCNC(=O)Oc1ccc(/C(=C(\C)c2ccccc2)c2ccc(OCCN3CCCCC3)cc2)cc1: 14.3
C=C1C(=O)O[C@H]2[C@H]1CC/C(CNS(=O)(=O)c1cccc3ccccc13)=C\CC[C@@]1(C)O[C@@H]21: 8.89
Cc1c(C)c([N+](=O)[O-])c(C)c([N+](=O)[O-])c1C: 122
C#CCNC(=O)c1cccc2c1cc(C)n2-c1nc2c(c(NCc3ccccc3)n1)CCCC2: -46.4
CCNc1nc2ccc(Nc3ccnc4cc(Cl)ccc34)cc2[nH]1: 61.2

Quick one: growth of COc1cc2nc(-c3ccc(C(F)(F)F)cc3)cc(OCCCN3CCOCC3)c2cc1OC ?
20

Now try C=C1C(=O)O[C@H]2[C@H]1CC/C(CNC(=O)c1cccc3ccccc13)=C\CC[C@@]1(C)O[C@@H]21 .
28.5

Now try COc1cc2nc(-c3ccc(Cl)cc3)cc(OCCCN3CCC(O)CC3)c2cc1OC .
23.8

Now try Cc1ccc(-c2[nH][nH]c(=O)c2-c2nc3ccccc3s2)cc1 .
106
